System: Quadruplex DNA
Test: Stabilization of telomeric Htg24 G-quadruplex DNA (unknown origin) assessed as inhibition of DNA amplification at 20 uM by PCR analysis
Type: nucleic-acid assay
Activity calls are given as the source filed them. The rule behind the calls is not given here.
readoutKind: Activity

1. CN(C)c1ccc(/C=C/c2cc(/C=C3\Sc4ccccc4N3CCCN3CCOCC3)c3ccccc3[n+]2C)cc1.[I-] : Active
2. CN(C)c1ccc(Nc2c3ccc(NC(=O)CCN4CCCC4)cc3nc3cc(NC(=O)CCN4CCCC4)ccc23)cc1 : Active
3. CC1CCN(CCCN2/C(=C/c3cc(/C=C/c4ccc(N(C)C)cc4)[n+](C)c4ccccc34)Sc3ccccc32)CC1.[I-] : Active

====

System: Quadruplex DNA
Assay: Binding affinity to c-myc promoter G-quadruplex DNA Pu22 (unknown origin) assessed as equilibrium binding constant at 5 uM at 25 degreeC by […]
Type: nucleic-acid assay
Quick rule for you: Kb at 600000 M⁻¹ or higher means label 1, lower means label 0.

Some solved cases for reference:
1) CN(C)c1ccc(/C=C/c2cc(/C=C3\Sc4ccccc4N3CCCN3CCOCC3)c3ccccc3[n+]2C)cc1.[I-] : label 0
2) C[n+]1c(/C=C/c2ccc(N(c3ccccc3)c3ccccc3)cc2)cc(/C=C2\Sc3ccccc3N2CCCN2CCOCC2)c2ccccc21.[I-] : label 1

Pending compound:
Would you say `CSc1ccc(/C=C/c2cc(/C=C3\Sc4ccccc4N3CCCN3CCC(C)CC3)c3ccccc3[n+]2C)cc1.[I-]` shows Kb at minimum 600000 M⁻¹?
label 1

====

Biological target: DNA
Experiment: Binding affinity to ds26 DNA (unknown origin) assessed as dissociation constant by isothermal titration calorimetric analysis
readoutKind: pKd
Note on pKd: it is the negative log10 of concentration, concentration in mol/L.

Form field: reported pKd of `CN(C)c1ccc(/C=C/c2cc(/C=C3\Sc4ccccc4N3CCCN3CCOCC3)c3ccccc3[n+]2C)cc1.[I-]`
5.53

====

Biological target: Quadruplex DNA
Test: Binding affinity to telomeric Htg24 G-quadruplex DNA (unknown origin) assessed as dissociation constant by isothermal titration calorimetric analysis
Assay type: nucleic-acid assay
readoutKind: pKd
Note on pKd: it is the negative log10 of concentration, concentration in mol/L.

Form field: reported pKd of `CN(C)c1ccc(/C=C/c2cc(/C=C3\Sc4ccccc4N3CCCN3CCOCC3)c3ccccc3[n+]2C)cc1.[I-]`
6.19

====

Target: Quadruplex DNA
Test: Binding affinity to telomeric Htg22 G-quadruplex DNA (unknown origin) assessed as dissociation constant by isothermal titration calorimetric analysis
Format: nucleic-acid assay
readoutKind: Kd (nM)
All answers are understood in nM, so give the number only.

Form field: reported Kd of `CN(C)c1ccc(/C=C/c2cc(/C=C3\Sc4ccccc4N3CCCN3CCOCC3)c3ccccc3[n+]2C)cc1.[I-]`
710

====

Recorded pIC50 values for a group of compounds are listed next.
Tested on: MCF7
Experiment: Antiproliferative activity against human MCF7 cells assessed as reduction in cell viability […] by MTT assay
Type: functional, cell-based
Note on pIC50: it is the negative log10 of concentration, concentration in mol/L.

Before answering, review these 2 worked examples.
1. CC1CCN(CCCN2/C(=C/c3cc(/C=C/c4ccc(N(C)C)cc4)[n+](C)c4ccccc34)Sc3ccccc32)CC1.[I-] : 4.90
2. CSc1ccc(/C=C/c2cc(/C=C3\Sc4ccccc4N3CCCN3CCOCC3)c3ccccc3[n+]2C)cc1.[I-] : 3.98

Okay, now this compound:
Record `CN(C)c1ccc(/C=C/c2cc(/C=C3\Sc4ccccc4N3CCCN3CCOCC3)c3ccccc3[n+]2C)cc1.[I-]` : what is its pIC50 with MCF7?
4.84
